Catalogue of PL readings, one per entry.
- Species on record: Rattus norvegicus
- protocol description: Open TG-GATES - Regimen: Single
- Type: toxicity, organism-based, Sprague-Dawley
- Design: regimen Single, gender Male, age 6 weeks
- setup conditions: in vivo, po, 100 mg/kg, 3 h, tissue Plasma, route gavage, dose level High
reported metric: PL (mg/dL)

>>> print(df.to_string())
                                   compound  reported_metric      u  result_value
0  CN(C)CCCN1c2ccccc2CCc2ccc(Cl)cc21 [CLOMIPRAMINE]               PL  mg/dL           147
1                CN(C)CCN(Cc1cccs1)c1ccccn1               PL  mg/dL         121.4
2  CC1=C(/C=C/C(C)=C/C=C/C(C)=C/CO)C(C)(C)CCC1 [RETINOL]               PL  mg/dL         157.4
3  CN(C)CCCN1c2ccccc2CCc2ccccc21 [IMIPRAMINE]               PL  mg/dL           138

###

- Organism: Rattus norvegicus
- protocol description: Open TG-GATES - Regimen: Daily Repeat
- Type: toxicity, organism-based, Sprague-Dawley
- Design: regimen Daily Repeat, gender Male, age 6 weeks
- setup conditions: in vivo, po, 300 mg/kg, 72 h, tissue Plasma, route gavage, dose level Middle, time 3 day

compound	ALT
CCOC(=O)CCC(=O)O[C@H]1[C@H](O[C@@H]2[C@@H](C)[C@H](O[C@H]3C[C@@](C)(OC)[C@@H](O)[C@H](C)O3)[C@@H](C)C(=O)O[C@H](CC)[C@@](C)(O)[C@H](O)[C@@H](C)C(=O)[C@H](C)C[C@@]2(C)O)O[C@H](C)C[C@@H]1N(C)C [ERYTHROMYCIN ETHYLSUCCINATE]	44 IU/L
COC1=CC(=O)C[C@@H](C)[C@]12Oc1c(Cl)c(OC)cc(OC)c1C2=O	44.4 IU/L
NC(N)=Nc1nc(CSCCC(N)=NS(N)(=O)=O)cs1	33.6 IU/L
CCOc1ccc(NC(=O)CC(C)O)cc1 (centres undefined)	39.2 IU/L

###

- Species on record: Rattus norvegicus
- protocol description: Open TG-GATES - Regimen: Single
- Format: toxicity, organism-based, Sprague-Dawley
- Design: regimen Single, gender Male, age 6 weeks
- setup conditions: in vivo, po, 100 mg/kg, 24 h, tissue Blood, route gavage, dose level Low
// MCV lookup, one value per entry

molecule	MCV
CCOC(=O)CCC(=O)O[C@H]1[C@H](O[C@@H]2[C@@H](C)[C@H](O[C@H]3C[C@@](C)(OC)[C@@H](O)[C@H](C)O3)[C@@H](C)C(=O)O[C@H](CC)[C@@](C)(O)[C@H](O)[C@@H](C)C(=O)[C@H](C)C[C@@]2(C)O)O[C@H](C)C[C@@H]1N(C)C [ERYTHROMYCIN ETHYLSUCCINATE]	62.2 fL
COC1=CC(=O)C[C@@H](C)[C@]12Oc1c(Cl)c(OC)cc(OC)c1C2=O	64.8 fL
NC(N)=Nc1nc(CSCCC(N)=NS(N)(=O)=O)cs1	62.2 fL
COc1ccc2[nH]c([S+]([O-])Cc3ncc(C)c(OC)c3C)nc2c1 (centres undefined)	62.2 fL
